Ref: patent US20250304567A1

System: p-IKKa levels in L363 (NIK translocated multiple myeloma) cells
assay_details: Effect of compounds on p-IKKa levels in L363 (NIK translocated multiple myeloma) cells (AlphaLISA SureFire Ultra p-IKKa Ser176/180)
Format: cell-based, human
condition_description: p-IKKa levels in L363 cells; average if tested more than once; read-out: Assay 2 IC50
Would you kindly list IC50 for each of these compounds?

Worked examples, 4 compounds total:
[
  {
    "compound": "CN1C(=O)[C@@](O)(c2cccc(-c3nc(-c4ccnc(Nc5ccn(C)n5)n4)cs3)c2)C[C@H]1C(F)(F)F (relative stereo) [Example 38]",
    "tested_system": "p-IKKa levels in L363 (NIK translocated multiple myeloma) cells",
    "experimental_result": "0.1 to 0.5 µM"
  },
  {
    "compound": "CN1CC(F)(F)C(O)(c2cccc(-c3nc(-c4ccnc(Nc5ccn(C)n5)n4)cs3)c2)C1=O (single isomer, unassigned) [Example 35]",
    "tested_system": "p-IKKa levels in L363 (NIK translocated multiple myeloma) cells",
    "experimental_result": "> 0.501 µM"
  },
  {
    "compound": "CN1CCC(O)(c2ccc(F)c(-c3csc(-c4ccnc(Nc5ccn(C)n5)n4)n3)c2)C1=O (single isomer, unassigned) [Example 29]",
    "tested_system": "p-IKKa levels in L363 (NIK translocated multiple myeloma) cells",
    "experimental_result": "> 0.501 µM"
  },
  {
    "compound": "CC(Nc1nccc(-c2nc(-c3cccc(C4(O)CCN(C)C4=O)c3)cs2)n1)c1ccn(C)n1 (single isomer, unassigned) [Example 50]",
    "tested_system": "p-IKKa levels in L363 (NIK translocated multiple myeloma) cells",
    "experimental_result": "> 0.501 µM"
  }
]

We next turn to a different compound, shown below.
IN: For the compound C[C@@H](Nc1nccc(-c2csc(-c3cccc([C@]4(O)CCN(C)C4=O)c3)n2)n1)c1cn[nH]c1 (single isomer, unassigned) [Example 293] , report IC50.
OUT: 0.1 to 0.5 µM

---

Test system: p-IKKa levels in L363 (NIK translocated multiple myeloma) cells
assay_details: Effect of compounds on p-IKKa levels in L363 (NIK translocated multiple myeloma) cells (AlphaLISA SureFire Ultra p-IKKa Ser176/180)
Assay type: cell-based, human
condition_description: Homo sapiens, L-363, p-IKKa levels in L363 cells; average if tested more than once; read-out: Assay 2 IC50
Would you kindly list IC50 for each of these molecules?

Worked examples, 5 molecules total:
[
  {
    "molecule": "CN1CC[C@@](O)(c2cncc(-c3ccn(-c4ccnc(Nc5cnn6cccnc56)n4)n3)c2)C1=O (single isomer, unassigned)",
    "IC50": "> 501 nM"
  },
  {
    "molecule": "Cc1cn(CC(F)(F)F)nc1Nc1nccc(-c2csc(-c3cccc([C@]4(O)CCN(C)C4=O)c3)n2)n1",
    "IC50": "> 501 nM"
  },
  {
    "molecule": "CN1CC[C@@](O)(c2cccc(-c3nc(-c4ccnc(N[C@H]5CC[C@@H](O)C5)n4)cs3)c2)C1=O",
    "IC50": "> 501 nM"
  },
  {
    "molecule": "CN1CC[C@@](O)(c2cccc(-c3nc(-c4ccnc(Nc5cc(Cl)n(C)n5)n4)cs3)c2)C1=O",
    "IC50": "100 to 500 nM"
  },
  {
    "molecule": "CN1C(=O)[C@](O)(c2ccnc(-c3csc(-c4ccnc(Nc5ccn(C)n5)n4)n3)c2)C[C@H]1C(F)(F)F (single isomer, unassigned)",
    "IC50": "100 to 500 nM"
  }
]

Dear reader, for each entry below, please note its IC50.
1. CN1CC[C@@](O)(c2cccc(-c3nc(-c4ccnc(N[C@H]5CC[C@H](O)C5)n4)cs3)c2)C1=O
2. CN1CC[C@@](O)(c2cccc(-c3nc(-c4ccnc(NCCCOCC(F)(F)F)n4)cs3)c2)C1=O

OUT:
> 501 nM
> 501 nM

---

tested_system: Recombinant Human NF-kappaB-Inducing Kinase (NIK/MAP3K14) (Homo sapiens)
Sequence (Q99558 whole entry): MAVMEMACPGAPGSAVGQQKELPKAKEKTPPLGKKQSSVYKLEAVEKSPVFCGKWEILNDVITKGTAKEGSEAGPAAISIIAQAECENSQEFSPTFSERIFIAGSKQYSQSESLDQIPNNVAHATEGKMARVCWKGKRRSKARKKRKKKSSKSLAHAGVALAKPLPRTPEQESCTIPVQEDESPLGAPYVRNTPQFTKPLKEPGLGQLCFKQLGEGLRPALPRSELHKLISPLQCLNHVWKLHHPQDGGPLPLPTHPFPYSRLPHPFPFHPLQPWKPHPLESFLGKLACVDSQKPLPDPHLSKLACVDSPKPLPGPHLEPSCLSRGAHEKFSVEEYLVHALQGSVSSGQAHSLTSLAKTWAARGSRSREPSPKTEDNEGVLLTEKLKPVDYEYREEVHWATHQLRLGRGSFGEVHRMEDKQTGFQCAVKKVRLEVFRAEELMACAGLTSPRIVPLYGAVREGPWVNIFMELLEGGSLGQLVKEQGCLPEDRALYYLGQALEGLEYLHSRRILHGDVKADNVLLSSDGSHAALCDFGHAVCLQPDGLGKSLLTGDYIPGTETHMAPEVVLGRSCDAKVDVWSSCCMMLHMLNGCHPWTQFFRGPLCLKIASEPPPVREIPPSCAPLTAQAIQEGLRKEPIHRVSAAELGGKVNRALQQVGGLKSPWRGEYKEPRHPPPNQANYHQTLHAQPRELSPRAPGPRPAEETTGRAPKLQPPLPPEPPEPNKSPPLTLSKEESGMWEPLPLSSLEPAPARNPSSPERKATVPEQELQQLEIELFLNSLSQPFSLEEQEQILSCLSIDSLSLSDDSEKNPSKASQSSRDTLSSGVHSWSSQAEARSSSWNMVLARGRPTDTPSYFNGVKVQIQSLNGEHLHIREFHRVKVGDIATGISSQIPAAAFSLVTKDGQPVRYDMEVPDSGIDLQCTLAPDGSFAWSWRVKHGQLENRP
assay_details: Inhibition of auto-phosphorylation of recombinant human NIK/MAP3K14 activity (AlphaScreen)
condition_description: 5 μM ATP, 1 nM NIK, average if tested more than once
Would you kindly list IC50 for each of these compounds?

[
  {
    "compound": "CN1CC[C@@](O)(c2cccc(-c3nc(-c4ccnc(Nc5nn(C)c6ccccc56)n4)cs3)c2)C1=O [Example 69]",
    "experimental_result": "< 100 nM"
  },
  {
    "compound": "C[C@H](Nc1nccc(-n2ccc(-c3cccc([C@]4(O)CCN(C)C4=O)c3)n2)n1)c1cnn(C)c1 (single isomer, unassigned) [Example 93]",
    "experimental_result": "< 100 nM"
  },
  {
    "compound": "CN1CC[C@@](O)(c2cccc(-c3nc(-c4ccnc(Nc5ccn(C)n5)n4)co3)c2)C1=O [Example 1]",
    "experimental_result": "< 100 nM"
  },
  {
    "compound": "CC(Nc1nccc(-c2nc(-c3cccc(C4(O)CCN(C)C4=O)c3)cs2)n1)c1cnn(C)c1 (single isomer, unassigned) [Example 39]",
    "experimental_result": "< 100 nM"
  },
  {
    "compound": "CN1CC[C@@](O)(c2cccc(-c3nc(-c4ccnc(N[C@H]5CCC[C@H](O)C5)n4)cs3)c2)C1=O [Example 254]",
    "experimental_result": "100 to 500 nM"
  }
]

Dear reader, for each entry below, please note its IC50.
1. CN1CC[C@@](O)(c2cccc(-c3nc(-c4ccnc(NCCS(C)(=O)=O)n4)cs3)c2)C1=O [Example 173]
2. CC(Nc1nccc(-c2nc(-c3cccc(C4(O)CCN(C)C4=O)c3)cs2)n1)c1cc[nH]n1 (single isomer, unassigned) [Example 42]
3. CN1CC[C@@](O)(c2cccc(-c3nc(-c4ccnc(NC[C@H]5CCOC5)n4)cs3)c2)C1=O [Example 192]
4. CN1CC[C@@](O)(c2cccc(-c3nc(-c4ccnc(N[C@H]5CCC[C@@H]5O)n4)cs3)c2)C1=O [Example 108]
5. CN1CCC(Nc2nccc(-c3csc(-c4cccc([C@]5(O)CCN(C)C5=O)c4)n3)n2)C1=O (stereo partly shown) [Example 201]
6. CN1CC[C@@](O)(c2cccc(-c3nc(-c4ccnc(NCCn5cccn5)n4)cs3)c2)C1=O [Example 198]
7. CC(Nc1nccc(-c2csc(-c3cccc([C@]4(O)CCN(C)C4=O)c3)n2)n1)c1nc2ccccc2[nH]1 (stereo partly shown) [Example 45]

OUT:
1. 100 to 500 nM
2. < 100 nM
3. 100 to 500 nM
4. 100 to 500 nM
5. > 501 nM
6. 100 to 500 nM
7. < 100 nM

---

Test system: p-IKKa levels in L363 (NIK translocated multiple myeloma) cells
assay_details: Effect of compounds on p-IKKa levels in L363 (NIK translocated multiple myeloma) cells (AlphaLISA SureFire Ultra p-IKKa Ser176/180)
Assay type: cell-based, human
condition_description: Homo sapiens, L-363, p-IKKa levels in L363 cells; average if tested more than once; read-out: Assay 2 IC50
pIC50: −log10 of the molar value.
reported_endpoint: pIC50

Worked examples, 3 molecules total:
[
  {
    "molecule": "Cc1cccc(Nc2nccc(-c3csc(-c4cccc([C@]5(O)CCN(C)C5=O)c4)n3)n2)n1",
    "experimental_result": "< 6.30"
  },
  {
    "molecule": "CN1CC[C@@](O)(c2ccnc(-c3csc(-c4ccnc(Nc5ccnn5C)n4)n3)c2)C1=O (single isomer, unassigned)",
    "experimental_result": "6.30 to 7.00"
  },
  {
    "molecule": "Cc1cc(Nc2nccc(-c3csc(-c4cccc([C@]5(O)CCN(C)C5=O)c4)n3)n2)c(=O)n(C)c1",
    "experimental_result": "6.30 to 7.00"
  }
]

IN: For the molecule CN1CC[C@@](O)(c2cccc(-c3nc(-c4ccnc(Nc5cn(C)nc5OC(F)F)n4)cs3)c2)C1=O , report pIC50.
OUT: > 7.00

---

tested_system: Recombinant Human NF-kappaB-Inducing Kinase (NIK/MAP3K14) (Homo sapiens)
assay_details: Inhibition of auto-phosphorylation of recombinant human NIK/MAP3K14 activity (AlphaScreen)
condition_description: 5 μM ATP, 1 nM NIK, average if tested more than once
pIC50: −log10 of the molar value.
reported_endpoint: pIC50

Worked examples, 5 compounds total:
[
  {
    "compound": "CN1CCC(O)(c2cc(F)cc(-c3csc(-c4ccnc(Nc5ccn(C)n5)n4)n3)c2)C1=O (single isomer, unassigned) [Example 26]",
    "pIC50": "< 6.30"
  },
  {
    "compound": "Cc1cnc(CNc2nccc(-c3csc(-c4cccc([C@]5(O)CCN(C)C5=O)c4)n3)n2)nc1 [Example 208]",
    "pIC50": "< 6.30"
  },
  {
    "compound": "CN1CC[C@@](O)(c2cccc(-c3nc(-c4ccnc(Nc5cnn(CC6CCCO6)c5)n4)cs3)c2)C1=O (stereo partly shown) [Example 72]",
    "pIC50": "> 7.00"
  },
  {
    "compound": "C[C@H](Nc1nccc(-n2ccc(-c3cccc([C@]4(O)CCN(C)C4=O)c3)n2)n1)c1ccnn1C (single isomer, unassigned) [Example 91]",
    "pIC50": "> 7.00"
  },
  {
    "compound": "CN1CC[C@@](O)(c2cncc(-c3ccn(-c4ccnc(Nc5ccn(C)n5)n4)n3)c2)C1=O (single isomer, unassigned) [Example 147]",
    "pIC50": "> 7.00"
  }
]

Dear reader, for each entry below, please note its pIC50.
1. CN1CC[C@@](O)(c2cccc(-c3nc(-c4ccnc(Nc5cn(CCF)cn5)n4)cs3)c2)C1=O [Example 117]
2. CN1CC[C@@](O)(c2cccc(-c3nc(-c4ccnc(NC5CC5)n4)cs3)c2)C1=O [Example 137]

OUT:
1: > 7.00; 2: > 7.00
